# procedureDetails: Phase 1 single ascending dose (SAD) pharmacokinetics incl. food effect
# Type: in vivo, human
# conditionSummary: human, plasma, oral, 900 mg, Cohort 3, Regimen C, Fasted; geometric mean (geometric CV%)
# Procedure: A randomized, double-blind, placebo-controlled Phase 1 trial (ClinicalTrials.gov identifier: NCT05484414) (02/08/2022) was conducted to assess the safety, tolerability, food effect, pharmacokinetics (PK), and pharmacodynamics (PD) of single and multiple ascending doses of SRP-001 (Quotient Sciences, Miami FL USA; Fig. 3h - k and Methods). […]
quantityName: AUC(0-inf) (ng·h/mL)

> print(dat)
                                inputsmiles  observedmeasurement
1  CCN(CC)C(=O)c1ccccc1S(=O)(=O)NCC(=O)Nc1ccc(O)cc1                 6970

---

# procedureDetails: Phase 1 single ascending dose (SAD) pharmacokinetics incl. food effect
# Format: in vivo, human
# conditionSummary: human, plasma, po, 900 mg, Cohort 3, Period 1: Regimen C, 900 mg oral suspension, Fasted, N 6
quantityName: Tmax (h)

> print(dat)
                                inputsmiles  unitspec  observedmeasurement
1  CCN(CC)C(=O)c1ccccc1S(=O)(=O)NCC(=O)Nc1ccc(O)cc1         h                    1

---

# procedureDetails: Phase 1 single ascending dose (SAD) pharmacokinetics incl. food effect
# Type: in vivo, human
# conditionSummary: human, plasma, oral, 600 mg, Cohort 2, Regimen B, 600 mg, Fasted; geometric mean (geometric CV%); read-out: AUC0-last
quantityName: AUC(0-t) (ng·h/mL)

> print(dat)
                                inputsmiles  observedmeasurement
1  CCN(CC)C(=O)c1ccccc1S(=O)(=O)NCC(=O)Nc1ccc(O)cc1                 4940

---

# procedureDetails: 5-day repeat-dose oral toxicity and toxicokinetic study (non-GLP)
# Assay type: in vivo, rats
# conditionSummary: Sprague-Dawley, rat, blood, po, mid and high doses
quantityName: Tmax (h)

> print(dat)
                                inputsmiles  quantityname  unitspec  observedmeasurement
1  CCN(CC)C(=O)c1ccccc1S(=O)(=O)NCC(=O)Nc1ccc(O)cc1          Tmax         h                  4.5

---

# procedureDetails: Phase 1 single ascending dose (SAD) pharmacokinetics incl. food effect
# Format: in vivo, human
# conditionSummary: human, plasma, oral, 600 mg, Cohort 2, Regimen B, Fasted; geometric mean (geometric CV%)
quantityName: AUC(0-inf) (ng·h/mL)

> print(dat)
                                   compound  quantityname  unitspec  observedmeasurement
1  CCN(CC)C(=O)c1ccccc1S(=O)(=O)NCC(=O)Nc1ccc(O)cc1 [SRP-001]    AUC(0-inf)   ng·h/mL                 5840

---

# procedureDetails: Phase 1 single ascending dose (SAD) pharmacokinetics incl. food effect
# Format: in vivo, human
# conditionSummary: human, plasma, oral, 300 mg, Cohort 1, Regimen A, Fasted; geometric mean (geometric CV%)
quantityName: AUC(0-inf) (ng·h/mL)

> print(dat)
                                   compound  quantityname  observedmeasurement
1  CCN(CC)C(=O)c1ccccc1S(=O)(=O)NCC(=O)Nc1ccc(O)cc1 [SRP-001]    AUC(0-inf)                 1630

The reported measurements were obtained from paper PMC11096368.
